The entries below pair compounds with pIC50 values for Amine oxidase [flavin-containing] B (Homo sapiens, UniProt P27338), as found in several publications.
Please keep in mind that pIC50 is minus log10 of the molar concentration; only the number is needed.

For orientation, consider the following solved cases.
1. NC(=O)Cc1nc2cc(OCc3ccc(C(F)(F)F)cc3)ccc2[nH]1
6.79
2. OCc1c(Br)c(O)c(O)c(Br)c1Br
3.82

Alright, here's another compound for you.
Record summary for COc1ccc(-c2cc3cc4ccccc4cc3oc2=O)cc1 : reported pIC50 = 4.32
